src = PubChem BioAssay AID1217

Test system: diaphorase (Clostridium kluyveri)
Assay: compounds blocking diaphorase resazurin reduction – biochemical, uHTS, resorufin fluorescence, counter-screen for diaphorase-coupled primary assays, primary screen (AID 1217)
Settings: diaphorase resazurin-to-resorufin fluorescence, NADH, 16 min; at 20 µM; bacterial (C. kluyveri) enzyme, not human
The whole screen tested about 190,000 compounds, of which about 1,300 (0.68%) were called active.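 How the source made its calls: active means primary screen inhibition at 20 µM above a set limit (cut at about 50% in these data); inactive means the rest.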 Only a selection was taken, and actives are over-represented in it overall.
Could you please pick one outcome from this set? active, inactive

Assay result, entry CCN(CC)CCN(C(=O)c1cccc([N+](=O)[O-])c1)c1nc2ccc(OC)cc2s1 — outcome?
inactive

Identify the outcome logged in this assay for the molecule shown: c1ccc(C2=Nc3cccc4cccc(c34)N2)cc1
inactive

Outcome logged for Clc1ccccc1CSc1nnc(-c2ccco2)c(-c2ccco2)n1 in this assay:
inactive

How was Cc1nc(-c2ccccc2)cn2c1nc1ccccc12 classified in this test?
inactive

Which outcome was assigned to CCOc1cccc(C(=O)Nc2cccnc2)c1 in this test?
inactive

Which result was noted for this molecule in the test: FC(F)(F)c1cccc(N/N=C/c2ccccc2)c1
inactive

Per the records of this test, what outcome belongs to O=C1CCCC2=C1C(c1cccs1)CC(=O)N2c1ccc(F)cc1 (stereo unspecified) ?
inactive

What was the test verdict on COc1cccc(/C=N/Nc2ncc(C(F)(F)F)cc2Cl)c1O ?
inactive

Dear all, I need the recorded test outcome for COc1ccc(-c2csc(Nc3ccc(O)cc3)n2)cc1 , thank you.
inactive

What call does the record list for COc1ccc(N(C)S(=O)(=O)c2cccc3nsnc23)cc1 ?
inactive

Test call for this molecule, please: O=C(NNC(=O)C1CCN(c2ncccn2)CC1)c1ccccc1
inactive

Name the outcome recorded for Cc1cc(Oc2ccccc2)nc(N2CCOCC2)n1 in the assay.
inactive

In this assay, the call recorded for CC(Sc1nc2c([nH]c3ccccc32)c(=O)n1C)c1ccccc1 (stereo unspecified) was what?
inactive

For O=c1[nH]c2ccccc2n2c(-c3ccccc3)nnc12 , which call appears in the assay record?
active

Any idea what this test logged for O=C(NCc1ccccn1)c1ccc2nc(-c3ccco3)c(-c3ccco3)nc2c1 ?
active

What outcome does the record of this test show for CCOC(=O)C1=NOC(Cn2cc(C(C)=O)c(=O)[nH]c2=O)C1 (stereo unspecified) ?
inactive

Dear colleague, could you share the recorded outcome for Cc1nn(-c2ccccc2)c(C)c1C(=O)OCC(=O)NC(=O)NC1CCCCC1 when you have a moment?
active

Status in this test for Cn1ncc2c(NNC(=O)Cc3cccc4ccccc34)ncnc21 ?
inactive

Each molecule tested received a call. Report the one for Cc1csc(NC(=O)NC2(C(F)(F)F)Oc3ccccc3O2)n1 .
inactive

# lookup: test call for O=C(COC(=O)c1cc([N+](=O)[O-])ccc1NCc1ccccc1)NC1CCCCC1
inactive

What did the test return for COc1ccc(NC(=O)Nc2ccc3nsnc3c2)cc1 ?
inactive

Which outcome did this test record for the molecule COc1ccccc1C1=Nc2cccc3cccc(c23)N1 ?
active

Hi, do you know how Cc1ccc(CNC(=O)Cn2c(=O)c3sccc3n(Cc3cccc([N+](=O)[O-])c3)c2=O)cc1 came out in this test?
inactive

Assay result, entry CCOC(=O)C1CCN(C(=O)C2(NC(=O)Nc3cccc(F)c3)CCCCC2)CC1 — outcome?
inactive

Status in this test for c1cnn(-c2cc(N3CCOCC3)ncn2)c1 ?
inactive

Tell me the assay call for Cc1ccccc1N/N=C/c1ccc(N2CCOCC2)cc1 please.
inactive

Look up the recorded call for CN(C)c1nc(-c2cccnc2)nc(-c2ccc(Cl)cc2)c1C#N in this test.
inactive

Please let me know the test result on file for CN(c1ccc(C(=O)NCc2ccccn2)cc1)S(C)(=O)=O .
inactive

Hey, what did the test say about COc1ccc(CS(=O)/C(Cl)=C(/Cl)C(=O)Nc2ccc(OC)nc2)cc1 (stereo unspecified) ?
inactive

# fetch the recorded call for O=[N+]([O-])c1cccc(-c2nnc3c4ccccc4c4ccccc4n23)c1 here
inactive

# lookup: test call for CCOc1ccccc1Nc1ccc(C(=O)O)cc1[N+](=O)[O-]
inactive

Hello, I am checking results. What call was entered for COc1ccc(/C=C/CN2CCN(Cc3ccc(C)cc3)C(CCO)C2)cc1 (stereo unspecified) ?
inactive

How did this test come out for CCOc1ccc2[nH]c(=O)c(C(c3nnnn3CCOC)N3CCOCC3)cc2c1 (stereo unspecified) ?
inactive

How was COc1ccc(OC)c(Nc2nc(-c3ccc(O)c(O)c3)cs2)c1 classified in this test?
active

Recorded test outcome, item Fc1ccccc1N=C1Nc2cccc3cccc1c23
inactive

Would you mind telling me which call this test gave COc1ccc(CC(NC(C)=O)C(=O)NC2CCN(C(=O)c3ccc(OC)c(OC)c3)CC2)cc1OC (stereo unspecified) ?
inactive

Any idea what this test logged for COC(=O)C[n+]1cccc2ccccc21 ?
inactive

Hi, sorry to bother you, what did the test record for COc1ccc(NS(=O)(=O)c2cc(NC(=O)CC(=O)c3ccc([N+](=O)[O-])cc3)ccc2C)cc1 ?
inactive

For this molecule, state the assay outcome: COc1ccc(-c2csc(Nc3ccccn3)n2)cc1
inactive

Kindly provide the recorded test outcome for the following molecule: CC(=O)Nc1ccc(S(=O)(=O)NC(C)C(=O)OCC(=O)NC2CCCC2)cc1 (stereo unspecified)
inactive

Tell me the assay call for OCCC1CN(Cc2cccc(OC3CCCC3)c2)CCN1Cc1ccsc1 (stereo unspecified) please.
inactive

Record request — test call for O=C(Nc1cc(N2CCOCC2)ncn1)NC1(C(F)(F)F)Oc2ccc(Cl)cc2O1 (stereo unspecified)
active

Status in this test for CCSC1=NCCN1S(=O)(=O)c1ccc(F)cc1 ?
inactive

Recorded test outcome, item CN(C)NC(=O)C(NC(=O)c1ccc(N)cc1)C12CC3CC(CC(C3)C1)C2 (stereo unspecified)
inactive

Please indicate how the test categorized CCOc1ccc(-n2c(O)c(/C=N/c3ccnn3Cc3ccncc3)c3ccccc3c2=O)cc1 .
inactive

Please let me know the test result on file for CCC(C)(C)N=C(NC#N)Nc1cccnc1 .
active
